- Target or test system: Yap3 (UniProt P38749)
- Sequence: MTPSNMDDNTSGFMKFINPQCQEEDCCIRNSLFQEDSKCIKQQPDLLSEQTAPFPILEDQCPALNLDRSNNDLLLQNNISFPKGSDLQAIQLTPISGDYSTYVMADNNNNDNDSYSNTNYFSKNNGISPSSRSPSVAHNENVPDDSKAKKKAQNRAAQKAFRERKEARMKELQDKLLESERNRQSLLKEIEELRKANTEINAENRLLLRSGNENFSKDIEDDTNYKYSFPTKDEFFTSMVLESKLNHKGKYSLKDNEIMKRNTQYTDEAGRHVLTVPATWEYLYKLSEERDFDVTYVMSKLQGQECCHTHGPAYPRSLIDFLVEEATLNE
- Assay overview: PBM E-score (8-mer binding enrichment) (E-score (-0.5 to 0.5)); higher = stronger / more preferred TF binding
- Test settings: protein concentration: 100 nM; construct: GST-full length
In all, about 33,000 sequences were measured (“E-score (-0.5 to 0.5)”: median about -0.0034, highest 2% from about 0.25 on). What follows is part of a selection rich in the highest values, with near analogues and random picks from the rest.
Listed sequences paired with reported PBM E-score
Result type: PBM E-score

>>> numeric_readout("ACCAAATG")
0.0905
>>> numeric_readout("GAACTCTC")
-0.0889
>>> numeric_readout("AAGGACAC")
-0.0338
>>> numeric_readout("GCCAGTAA")
-0.206
>>> numeric_readout("ACTTCCGG")
0.0969
>>> numeric_readout("ATGGCCGA")
0.0282
>>> numeric_readout("CGTACAAA")
0.108
>>> numeric_readout("AAGTCTCC")
-0.0848
>>> numeric_readout("CTAGAGAG")
-0.139
>>> numeric_readout("ACCTGAAG")
0.00792
>>> numeric_readout("ATTGCAAA")
0.0883
